A collection of sequences and their measured PBM binding z-score
tested on: RARa:RXR (NR concentration 270 nM, RXRa partner concentration 90 nM); test: PBM binding z-score (relative to random genomic background probes); higher = stronger binding; sequences stand for … in GC…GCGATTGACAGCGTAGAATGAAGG
measurement.name: PBM binding z-score

- chain: "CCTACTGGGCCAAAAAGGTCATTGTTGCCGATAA"
  measured.number: 4.33
- chain: "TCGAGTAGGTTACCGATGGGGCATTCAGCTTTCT"
  measured.number: 0.377
- chain: "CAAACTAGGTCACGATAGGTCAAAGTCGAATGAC"
  measured.number: 5.95
- chain: "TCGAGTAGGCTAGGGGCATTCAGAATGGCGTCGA"
  measured.number: -0.131
- chain: "AGTCAAAGTTCATGACGAGGTAACGTAAAGCACG"
  measured.number: 4.61
- chain: "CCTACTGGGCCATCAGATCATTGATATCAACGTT"
  measured.number: -0.391
- chain: "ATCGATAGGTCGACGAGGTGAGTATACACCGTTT"
  measured.number: 1.6
- chain: "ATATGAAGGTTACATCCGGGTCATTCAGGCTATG"
  measured.number: 4.2
- chain: "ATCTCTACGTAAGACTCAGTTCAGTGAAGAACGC"
  measured.number: 0.208
- chain: "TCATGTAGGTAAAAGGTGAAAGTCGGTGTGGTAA"
  measured.number: 2.72

* * *

system: THRa:RXRa (NR concentration 90 nM, RXRa partner concentration 90 nM); assay: PBM binding z-score (relative to random genomic background probes); higher = stronger binding; sequences stand for … in GC…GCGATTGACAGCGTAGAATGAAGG
measurement.name: PBM binding z-score

- chain: "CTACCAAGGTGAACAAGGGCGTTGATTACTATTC"
  measured.number: 2.13
- chain: "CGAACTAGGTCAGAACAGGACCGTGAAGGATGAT"
  measured.number: 1.56
- chain: "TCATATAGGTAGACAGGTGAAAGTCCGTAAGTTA"
  measured.number: 0.763
- chain: "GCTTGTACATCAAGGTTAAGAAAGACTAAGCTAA"
  measured.number: 0.997
- chain: "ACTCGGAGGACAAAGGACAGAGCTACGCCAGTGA"
  measured.number: 0.569
- chain: "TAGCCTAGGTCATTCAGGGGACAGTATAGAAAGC"
  measured.number: 3.75
- chain: "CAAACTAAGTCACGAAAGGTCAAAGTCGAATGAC"
  measured.number: 4.42
- chain: "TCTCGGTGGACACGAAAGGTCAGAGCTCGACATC"
  measured.number: 2.96
- chain: "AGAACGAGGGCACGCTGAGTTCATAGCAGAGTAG"
  measured.number: 3.31
- chain: "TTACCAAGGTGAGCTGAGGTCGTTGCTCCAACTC"
  measured.number: 4.78
- chain: "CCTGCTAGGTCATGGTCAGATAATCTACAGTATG"
  measured.number: 3.1
- chain: "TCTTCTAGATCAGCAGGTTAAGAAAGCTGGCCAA"
  measured.number: 0.17
- chain: "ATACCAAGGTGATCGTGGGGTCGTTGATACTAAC"
  measured.number: 3.15

* * *

test system: PPARg DBDmut IVT, anti-PPARg (DBD mutation: PPARg1 K132A/R137A, NR concentration 270 nM); assay: PBM binding z-score (relative to random genomic background probes); higher = stronger binding; sequences stand for … in GC…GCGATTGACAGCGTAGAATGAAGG
Reported PBM binding z-score by item:
measurement.name: PBM binding z-score

- chain: "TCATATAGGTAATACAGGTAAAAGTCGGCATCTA"
  measurement.name: "PBM binding z-score"
  measured.number: 1.94
- chain: "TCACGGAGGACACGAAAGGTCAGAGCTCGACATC"
  measurement.name: "PBM binding z-score"
  measured.number: -0.261
- chain: "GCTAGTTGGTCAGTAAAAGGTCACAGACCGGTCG"
  measurement.name: "PBM binding z-score"
  measured.number: 0.44
- chain: "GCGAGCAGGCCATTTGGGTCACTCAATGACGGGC"
  measurement.name: "PBM binding z-score"
  measured.number: -0.968
- chain: "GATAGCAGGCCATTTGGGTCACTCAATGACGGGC"
  measurement.name: "PBM binding z-score"
  measured.number: -0.698
- chain: "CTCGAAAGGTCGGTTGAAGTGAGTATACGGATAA"
  measurement.name: "PBM binding z-score"
  measured.number: 0.582
- chain: "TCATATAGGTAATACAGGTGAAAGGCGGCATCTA"
  measurement.name: "PBM binding z-score"
  measured.number: 1.03
- chain: "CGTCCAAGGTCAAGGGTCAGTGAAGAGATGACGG"
  measurement.name: "PBM binding z-score"
  measured.number: -0.0608
- chain: "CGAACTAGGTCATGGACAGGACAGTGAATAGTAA"
  measurement.name: "PBM binding z-score"
  measured.number: 0.998
- chain: "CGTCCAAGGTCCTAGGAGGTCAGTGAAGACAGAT"
  measurement.name: "PBM binding z-score"
  measured.number: -1.02
- chain: "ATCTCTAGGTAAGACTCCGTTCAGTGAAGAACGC"
  measurement.name: "PBM binding z-score"
  measured.number: 0.804
- chain: "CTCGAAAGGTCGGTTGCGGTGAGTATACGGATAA"
  measurement.name: "PBM binding z-score"
  measured.number: 0.202

* * *

tested on: VDR:RXRa (NR concentration 270 nM, RXRa partner concentration 90 nM); assay: PBM binding z-score (relative to random genomic background probes); higher = stronger binding; sequences stand for … in GC…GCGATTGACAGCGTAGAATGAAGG
Category | rule: reported PBM binding z-score within range, see bucket A = under 0.7, bucket B = from 0.7 up to 4, bucket C = 4 and over

- chain: "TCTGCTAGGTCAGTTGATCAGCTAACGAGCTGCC"
  assigned.category: "bucket A"
- chain: "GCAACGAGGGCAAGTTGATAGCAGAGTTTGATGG"
  assigned.category: "bucket B"
- chain: "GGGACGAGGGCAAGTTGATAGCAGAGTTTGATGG"
  assigned.category: "bucket B"
- chain: "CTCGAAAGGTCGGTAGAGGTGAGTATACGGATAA"
  assigned.category: "bucket B"
- chain: "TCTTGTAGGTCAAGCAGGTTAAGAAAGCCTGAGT"
  assigned.category: "bucket C"
- chain: "TGAATCAGGTTATAAGATCAGGGAACGTTGCAAA"
  assigned.category: "bucket A"
- chain: "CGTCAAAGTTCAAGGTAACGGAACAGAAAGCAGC"
  assigned.category: "bucket B"
- chain: "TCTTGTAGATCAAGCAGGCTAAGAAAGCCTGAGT"
  assigned.category: "bucket A"
- chain: "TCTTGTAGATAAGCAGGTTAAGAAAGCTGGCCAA"
  assigned.category: "bucket A"
- chain: "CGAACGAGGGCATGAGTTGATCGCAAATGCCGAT"
  assigned.category: "bucket B"
- chain: "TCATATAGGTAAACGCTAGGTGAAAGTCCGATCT"
  assigned.category: "bucket B"
- chain: "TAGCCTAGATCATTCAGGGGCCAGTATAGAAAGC"
  assigned.category: "bucket A"
- chain: "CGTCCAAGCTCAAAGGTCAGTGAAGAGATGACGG"
  assigned.category: "bucket B"
- chain: "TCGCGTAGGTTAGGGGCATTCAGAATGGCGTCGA"
  assigned.category: "bucket A"
- chain: "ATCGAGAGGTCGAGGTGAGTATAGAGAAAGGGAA"
  assigned.category: "bucket B"
- chain: "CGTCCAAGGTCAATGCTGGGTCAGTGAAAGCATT"
  assigned.category: "bucket C"
- chain: "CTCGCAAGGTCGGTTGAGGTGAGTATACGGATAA"
  assigned.category: "bucket B"
- chain: "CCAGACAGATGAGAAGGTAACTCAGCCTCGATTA"
  assigned.category: "bucket A"
- chain: "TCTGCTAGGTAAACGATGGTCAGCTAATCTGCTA"
  assigned.category: "bucket A"
- chain: "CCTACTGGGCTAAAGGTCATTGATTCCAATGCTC"
  assigned.category: "bucket C"
- chain: "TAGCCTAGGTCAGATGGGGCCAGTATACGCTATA"
  assigned.category: "bucket B"
- chain: "AGAACGAGGGCAATGAGTAGATAGCACGGGTGGC"
  assigned.category: "bucket B"
- chain: "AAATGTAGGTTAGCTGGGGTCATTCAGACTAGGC"
  assigned.category: "bucket C"
- chain: "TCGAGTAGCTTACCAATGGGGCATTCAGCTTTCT"
  assigned.category: "bucket A"
- chain: "CCGACGGGGGCATAAGGTTACCATAAGCCAGCCC"
  assigned.category: "bucket B"
- chain: "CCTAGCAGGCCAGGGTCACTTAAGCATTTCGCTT"
  assigned.category: "bucket B"
- chain: "CCTACTGGGCTAAAAAGGTCATTGATGCCGATAA"
  assigned.category: "bucket C"
- chain: "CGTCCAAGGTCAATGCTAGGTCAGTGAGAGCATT"
  assigned.category: "bucket C"
- chain: "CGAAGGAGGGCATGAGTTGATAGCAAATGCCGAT"
  assigned.category: "bucket A"
- chain: "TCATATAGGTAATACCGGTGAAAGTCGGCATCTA"
  assigned.category: "bucket A"
- chain: "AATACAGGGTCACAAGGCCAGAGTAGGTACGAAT"
  assigned.category: "bucket C"
- chain: "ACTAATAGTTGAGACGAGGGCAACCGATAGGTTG"
  assigned.category: "bucket B"
- chain: "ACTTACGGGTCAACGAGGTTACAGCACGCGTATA"
  assigned.category: "bucket C"
